measuredOn: Cytochrome P450 3A4 (Homo sapiens) (UniProt P08684)
Sequence (P08684 whole entry, looked up): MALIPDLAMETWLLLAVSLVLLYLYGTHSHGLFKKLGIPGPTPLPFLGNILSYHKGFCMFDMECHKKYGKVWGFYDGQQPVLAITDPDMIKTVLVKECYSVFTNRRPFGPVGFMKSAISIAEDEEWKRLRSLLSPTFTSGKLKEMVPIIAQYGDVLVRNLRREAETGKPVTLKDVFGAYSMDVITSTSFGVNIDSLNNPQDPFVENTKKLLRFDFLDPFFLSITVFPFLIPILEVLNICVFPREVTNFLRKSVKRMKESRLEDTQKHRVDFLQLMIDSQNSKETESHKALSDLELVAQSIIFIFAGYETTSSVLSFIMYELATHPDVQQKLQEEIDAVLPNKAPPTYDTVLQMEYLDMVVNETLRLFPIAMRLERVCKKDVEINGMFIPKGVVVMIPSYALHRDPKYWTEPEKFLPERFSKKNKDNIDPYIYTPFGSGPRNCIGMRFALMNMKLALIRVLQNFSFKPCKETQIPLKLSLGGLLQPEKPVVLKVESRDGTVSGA
test: Cytochrome panel assay with activity outcomes; further: on the % scale 0 is the no-effect control and ±100 the full control effect
conditionsUsed: recombinant CYP, pro-luciferin dealkylation, luminescence, p450-cyp3a4; series mostly up to 57.1 µM
In all, about 16,000 compounds went through this assay and about 5,100 (32%) were called active. Inconclusive results (about 25%) are left out. This is one part of the list.
Listing: activity, negative = inhibition of selected compounds
recordedEndpoint: activity, negative = inhibition

{"sampleSmiles": "CCCC(=O)NNC(=O)Nc1ccccc1", "result": "-11.8% [at 2.29 µM] (inactive)"}
{"sampleSmiles": "Oc1ccc2ccccc2c1Cc1c(O)ccc2ccccc12", "result": "-19% [at 11.4 µM] (inactive)"}
{"sampleSmiles": "O=C(Nc1c[nH]c(=O)[nH]c1=O)Oc1ccccc1", "result": "-22.1% [at 11.4 µM] (inactive)"}
{"sampleSmiles": "CN(C)CCNCCN", "result": "-3.91% [at 11.4 µM] (inactive)"}
{"sampleSmiles": "O=C(Cc1ccc(Cl)cc1)NNC(=O)Nc1cccc2ccccc12", "result": "-12.3% [at 2.29 µM] (inactive)"}
{"sampleSmiles": "CCN1CCN(c2nc(-c3ccccn3)nc3ccccc23)CC1", "result": "9.59% [at 2.29 µM] (inactive)"}
{"sampleSmiles": "NCCSCCC(=O)O", "result": "-1.66% [at 11.4 µM] (inactive)"}
